Sourced from ChEMBL document CHEMBL1944563

Biological target: Botulinum neurotoxin type A (Clostridium botulinum (strain Hall / ATCC 3502 / NCTC 13319 / Type A))
Sequence (P0DPI1 2-448 limits assumed): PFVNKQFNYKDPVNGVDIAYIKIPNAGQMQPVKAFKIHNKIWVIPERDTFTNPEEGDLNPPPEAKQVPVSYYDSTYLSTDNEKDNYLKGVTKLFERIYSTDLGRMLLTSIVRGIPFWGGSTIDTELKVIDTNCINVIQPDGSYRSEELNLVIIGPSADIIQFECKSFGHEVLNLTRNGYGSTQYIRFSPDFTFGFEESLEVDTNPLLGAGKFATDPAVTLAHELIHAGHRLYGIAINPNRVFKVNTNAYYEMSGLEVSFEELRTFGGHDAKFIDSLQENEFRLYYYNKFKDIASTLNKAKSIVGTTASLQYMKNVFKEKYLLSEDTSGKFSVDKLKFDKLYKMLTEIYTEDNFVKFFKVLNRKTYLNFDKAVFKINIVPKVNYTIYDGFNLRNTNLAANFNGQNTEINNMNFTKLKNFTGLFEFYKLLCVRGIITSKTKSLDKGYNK
Experiment: Inhibition of Clostridium botulinum Hall BoNT/A light chain using SNAP-25 (187 to 203) as substrate by HPLC analysis
Design: species or system Clostridium botulinum A str. Hall
Listed below: IC50 values for each entry.
Write it as a number; the unit nM goes unstated.

// below: answered molecules
Oc1c([C@H](Nc2ccccn2)c2ccccc2)cc(Cl)c2cccnc12 = 1100
Oc1c([C@@H](Nc2ccccn2)c2ccccc2)cc(Cl)c2cccnc12 = 1000

Shifting focus to the molecule that follows.
IC50 reported for this molecule Oc1c(C(Nc2ccccn2)c2ccccc2)cc(Cl)c2cccnc12 (racemic) : 1500
